Reported IC50 values, Serine/threonine-protein kinase mTOR (Homo sapiens, UniProt P42345).

INSERT INTO measurements (linenotation, readouttype, reportedmeasurement) VALUES
  ('COC[C@H]1OC(=O)/C(=C/N(C)CCN(C)C)C2=C(O)C(=O)C3=C([C@H](OC(C)=O)C[C@]4(C)[C@@H](O)CC[C@@H]34)[C@]21C', 'IC50', '1470 nM'),
  ('CCN(/C=C1/C(=O)O[C@H](COC)[C@@]2(C)C1=C(O)C(=O)C1=C2[C@H](OC(C)=O)C[C@]2(C)[C@@H](O)CC[C@@H]12)CCN(C)C', 'IC50', '878 nM'),
  ('COC[C@H]1OC(=O)/C(=C/N(CCC#N)Cc2ccccc2)C2=C(O)C(=O)C3=C([C@H](OC(C)=O)C[C@]4(C)[C@@H](O)CC[C@@H]34)[C@]21C', 'IC50', '> 1690 nM'),
  ('COC[C@H]1OC(=O)/C(=C/N2CCN(C3CCCCC3)CC2)C2=C(O)C(=O)C3=C([C@H](OC(C)=O)C[C@]4(C)[C@@H](O)CC[C@@H]34)[C@]21C', 'IC50', '820 nM'),
  ('CCN(/C=C1/C(=O)O[C@H](COC)[C@@]2(C)C1=C(O)C(=O)C1=C2[C@H](O)C[C@]2(C)[C@@H](O)CC[C@@H]12)CC', 'IC50', '> 20000 nM'),
  ('COC[C@H]1OC(=O)/C(=C/N(C)CCCN(C)C)C2=C(O)C(=O)C3=C([C@H](OC(C)=O)C[C@]4(C)[C@@H](O)CC[C@@H]34)[C@]21C', 'IC50', '2920 nM'),
  ('COC[C@H]1OC(=O)/C(=C/N2CCN(Cc3ccccc3)CC2)C2=C(O)C(=O)C3=C([C@H](OC(C)=O)C[C@]4(C)[C@@H](O)CC[C@@H]34)[C@]21C', 'IC50', '890 nM');

stdin: IC50 lookup needed for COC[C@H]1OC(=O)/C(=C/N2CCC(N3CCCCC3)CC2)C2=C(O)C(=O)C3=C([C@H](OC(C)=O)C[C@]4(C)[C@@H](O)CC[C@@H]34)[C@]21C , thanks.
stdout: 568 nM

----------
Tested on: LNCaP
Experiment: Growth inhibition of human LNCap cells
Assay type: functional, cell-based
Could you please mark 1 for values of IC50 below 500 nM and 0 for values at or above it?

Below, 6 molecules whose answers are already recorded.
INSERT INTO measurements (molecule, categorylabel) VALUES
  ('COC[C@H]1OC(=O)/C(=C/NCCCN(C)C)C2=C(O)C(=O)C3=C([C@H](OC(C)=O)C[C@]4(C)[C@@H](O)CC[C@@H]34)[C@]21C', 0),
  ('COC[C@H]1OC(=O)c2coc3c2[C@@]1(C)C1=C(C3=O)[C@@H]2CC[C@H](O)[C@@]2(C)C[C@H]1OC(C)=O', 0),
  ('COC[C@H]1OC(=O)/C(=C/N(CCC#N)Cc2ccccc2)C2=C(O)C(=O)C3=C([C@H](OC(C)=O)C[C@]4(C)[C@@H](O)CC[C@@H]34)[C@]21C', 1),
  ('CCN/C=C1/C(=O)O[C@H](COC)[C@@]2(C)C1=C(O)C(=O)C1=C2[C@H](OC(C)=O)C[C@]2(C)[C@@H](O)CC[C@@H]12', 0),
  ('COC[C@H]1OC(=O)/C(=C/N(CCO)CCO)C2=C(O)C(=O)C3=C([C@H](OC(C)=O)C[C@]4(C)[C@@H](O)CC[C@@H]34)[C@]21C', 1),
  ('COC[C@H]1OC(=O)/C(=C/N2CCN(CCCN(C)C)CC2)C2=C(O)C(=O)C3=C([C@H](OC(C)=O)C[C@]4(C)[C@@H](O)CC[C@@H]34)[C@]21C', 0);

stdin: Bench note: check whether COC[C@H]1OC(=O)/C(=C/N(C)CC(=O)OC(C)(C)C)C2=C(O)C(=O)C3=C([C@H](OC(C)=O)C[C@]4(C)[C@@H](O)CC[C@@H]34)[C@]21C shows IC50 below 500 nM
stdout: 1

stdin: Bench note: check whether COC[C@H]1OC(=O)/C(=C/N(CCN(C)C)Cc2ccccc2)C2=C(O)C(=O)C3=C([C@H](OC(C)=O)C[C@]4(C)[C@@H](O)CC[C@@H]34)[C@]21C shows IC50 below 500 nM
stdout: 0

stdin: Bench note: check whether COC[C@H]1OC(=O)/C(=C/N2CCCCC2)C2=C(O)C(=O)C3=C([C@H](OC(C)=O)C[C@]4(C)[C@@H](O)CC[C@@H]34)[C@]21C shows IC50 below 500 nM
stdout: 0

stdin: Bench note: check whether COC[C@H]1OC(=O)/C(=C/N(CCCN(C)C)C(C)(C)C)C2=C(O)C(=O)C3=C([C@H](OC(C)=O)C[C@]4(C)[C@@H](O)CC[C@@H]34)[C@]21C shows IC50 below 500 nM
stdout: 0

stdin: Bench note: check whether COC[C@H]1OC(=O)/C(=C/N(C)CCCC(=O)O)C2=C(O)C(=O)C3=C([C@H](OC(C)=O)C[C@]4(C)[C@@H](O)CC[C@@H]34)[C@]21C shows IC50 below 500 nM
stdout: 1

stdin: Bench note: check whether COC[C@H]1OC(=O)/C(=C/N2CCC(N3CCCCC3)CC2)C2=C(O)C(=O)C3=C([C@H](OC(C)=O)C[C@]4(C)[C@@H](O)CC[C@@H]34)[C@]21C shows IC50 below 500 nM
stdout: 0

stdin: Bench note: check whether CCN(CC)CCN(C)/C=C1/C(=O)O[C@H](COC)[C@@]2(C)C1=C(O)C(=O)C1=C2[C@H](OC(C)=O)C[C@]2(C)[C@@H](O)CC[C@@H]12 shows IC50 below 500 nM
stdout: 0

stdin: Bench note: check whether CCN(/C=C1/C(=O)O[C@H](COC)[C@@]2(C)C1=C(O)C(=O)C1=C2[C@H](OC(C)=O)C[C@]2(C)[C@@H](O)CC[C@@H]12)CCCN(C)C shows IC50 below 500 nM
stdout: 0

stdin: Bench note: check whether C=CCN(/C=C1/C(=O)O[C@H](COC)[C@@]2(C)C1=C(O)C(=O)C1=C2[C@H](OC(C)=O)C[C@]2(C)C(=O)CC[C@@H]12)CC=C [SONOLISIB] shows IC50 below 500 nM
stdout: 0

----------
Test system: LNCaP
Assay: Growth inhibition of human LNCap cells
Assay type: functional, cell-based
readoutType: IC50 (nM)
Report as a plain number; the unit nM is understood.

Record excerpt, results attached:
INSERT INTO measurements (linenotation, readouttype, reportedmeasurement) VALUES
  ('COC[C@H]1OC(=O)/C(=C/N(C)CCN(C)C)C2=C(O)C(=O)C3=C([C@H](OC(C)=O)C[C@]4(C)[C@@H](O)CC[C@@H]34)[C@]21C', 'IC50', 751),
  ('CCN(/C=C1/C(=O)O[C@H](COC)[C@@]2(C)C1=C(O)C(=O)C1=C2[C@H](OC(C)=O)C[C@]2(C)[C@@H](O)CC[C@@H]12)CC', 'IC50', 160),
  ('COC[C@H]1OC(=O)/C(=C/N2CCCC2)C2=C(O)C(=O)C3=C([C@H](OC(C)=O)C[C@]4(C)[C@@H](O)CC[C@@H]34)[C@]21C', 'IC50', 257);

Next up:
stdin: IC50 lookup needed for COC[C@H]1OC(=O)/C(=C/N(CCCN(C)C)CCCN(C)C)C2=C(O)C(=O)C3=C([C@H](OC(C)=O)C[C@]4(C)[C@@H](O)CC[C@@H]34)[C@]21C , thanks.
stdout: 259
